Catalogue of compounds with associated residual activity
target: cAMP-dependent protein kinase catalytic subunit alpha (Homo sapiens); details: at 1 µM
MEASUREMENT_TYPE: residual activity (%)

>>> value_measured("Nc1ccc2ncnc(NCCc3ccc(Oc4ccccc4)cc3)c2c1")
103
>>> value_measured("Cc1cncc2cccc(S(=O)(=O)N3CCCN(C(=O)CN)C[C@H]3C)c12")
69
>>> value_measured("Cc1ccc(S(=O)(=O)/C=C/C#N)cc1")
102
>>> value_measured("CC[n+]1c(/C=C/N(C)c2ccccc2)n(-c2ccccc2)c2ccc(-c3nc4ccccc4s3)cc21")
110
>>> value_measured("CC(C)n1cnc2c(NCc3ccccc3)nc(NCCCO)nc21")
98
>>> value_measured("COc1ccc(S(=O)(=O)N(CCO)c2ccccc2CN(C)C/C=C/c2ccc(Cl)cc2)cc1")
105
>>> value_measured("c1ccc2c(-c3ccncc3)c[nH]c2c1")
93
>>> value_measured("NC(=O)c1ccc2[nH]c(-c3ccc(Oc4ccc(Cl)cc4)cc3)nc2c1")
106
>>> value_measured("CC(C)n1cnc2/c(=N/c3cccc(Cl)c3)nc(NCCO)[nH]c21")
96
>>> value_measured("N#C/C(=C(\\N)Sc1ccc(N)cc1)c1ccccc1C(F)(F)F")
79
>>> value_measured("Nc1cccc(-c2cc3c(Oc4cccc(O)c4)ncnc3[nH]2)c1")
94

Source listed as ChEMBL document CHEMBL2218924.
